TARGET OR TEST SYSTEM: motilin receptors located on the colon of mature rabbits (Oryctolagus cuniculus)
Construct: The colon from mature New Zealand rabbits was removed, dissected free from the mucosa and serosa layers, and diced into small pieces; from tissue; host or cells: colon smooth muscle of mature New Zealand rabbits, crude membrane homogenate
Sequence (G1T803 1-400): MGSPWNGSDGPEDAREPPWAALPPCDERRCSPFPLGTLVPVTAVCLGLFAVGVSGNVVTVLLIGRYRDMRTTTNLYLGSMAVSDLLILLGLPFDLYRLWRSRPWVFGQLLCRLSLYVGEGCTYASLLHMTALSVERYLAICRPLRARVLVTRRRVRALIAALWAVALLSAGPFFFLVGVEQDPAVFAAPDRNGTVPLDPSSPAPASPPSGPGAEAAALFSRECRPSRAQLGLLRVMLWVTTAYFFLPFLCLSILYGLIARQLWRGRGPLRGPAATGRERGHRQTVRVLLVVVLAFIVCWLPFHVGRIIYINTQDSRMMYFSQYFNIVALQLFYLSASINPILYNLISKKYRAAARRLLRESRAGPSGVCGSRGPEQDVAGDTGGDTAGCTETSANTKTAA
ASSAY SUMMARY: competition with radiolabeled (125I) porcine motilin for the motilin receptors of rabbit colon
Type: binding
CONDITION DESCRIPTION: @ 10 μM
OBSERVED PROPERTY: inhibition at 10 µM (%)

1) CCN(CC)CCN(CC1=CC(Cc2ccccc2)(NC(=O)C(Cl)(Cl)Cl)CC1)c1ccc(OCCN(C)C)cc1 (stereo not shown) = 85
2) O=C(NC1(Cc2ccccc2)C=C(CN(Cc2ccccc2)Cc2cccc(OCCN3CCOCC3)c2)CC1)C(Cl)(Cl)Cl (stereo not shown) = 94
3) CCN(CC)CCOc1cccc(CN(CC2=CC(Cc3ccccc3)(NC(=O)C(Cl)(Cl)Cl)CC2)C(=O)c2ccccc2)c1 (stereo not shown) = 100
4) O=C(c1ccccc1)N(CCc1cccc(OCCN2CCOCC2)c1)CC1=CC(Cc2ccccc2)(NC(=O)C(Cl)(Cl)Cl)CC1 (stereo not shown) = 82
